Reference source for all entries: PubChem BioAssay AID1508600

# Test summary: Components of the Cytosolic LPS Sensing Pathway: Gene Identification via Genome-wide siRNA Screen
# Condition info: RAW264.7 macrophages, IL-1a HTRF, actives lie on both sides, screened at 100 nM (by protocol), cells primed 5 h with Pam3CSK4 first
Screen size: about 53,000 sequences; about 3,700 (7%) were called active.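 Rule for the calls: active = gene knockdowns whose robust z-score for IL-1 alpha signal is at least 2 or at most -2, so actives lie on both sides; inactive = the rest.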 The full list was thinned out, with actives kept by preference.
Answer with one of the outcomes true = active, false = inactive

Problem: Write down the call the test reported for this sequence. Item: GGAUGAGUUGUCAUUGAUATT against Nck1
Result: false

Problem: What about GGAAGAGGAAAUCACCACATT against Clec11a ?
Result: true

Problem: What about CGUGUAUCGUUGUCUGAAUTT against Donson ?
Result: true

Problem: What about GGCCUAAUGAAUUUGGUCATT against Ubxn7 ?
Result: false

Problem: What about GGUCAAACAAGAAACAGUUTT against Prdm1 ?
Result: false

Problem: What about GGACUGAAAUGUCUUAGACTT against Selenow ?
Result: false

Problem: What about GCACUUAGUCCUACAUGACTT against Fut1 ?
Result: false

Problem: What about GCAUGUGAAAUCUAGAUCATT against Cks1b ?
Result: false

Problem: What about CCGGCUAAAUCACCGUGCUTT against Clpb ?
Result: false

Problem: What about GGAACUGGACAAGGACGAUTT against Arhgdia ?
Result: false

Problem: What about GCAUUAAAAACCCUUUUUGTT against B230354K17Rik ?
Result: false

Problem: What about GGCUCUUGAAAAAAACCCATT against Utp11 ?
Result: false

Problem: What about GCCAGAUCUGUUAACCGCCTT against Gzmk ?
Result: true

Problem: What about GGAUACCCUGGAGUUUAUATT against Prss42 ?
Result: false

Problem: What about GGACAGCAAGAUGAAGAUGTT against Il17ra ?
Result: false

Problem: What about GGCUGGAGAAAAUGAUGAATT against Rwdd1 ?
Result: false

Problem: What about GGCAUAUGAUGAUAAGUAATT against P2ry14 ?
Result: false

Problem: What about GGUUGUGCAACACAGCUCUTT against Olfr218 ?
Result: true

Problem: What about GGACUUGAAAGACGAGAUATT against Cyp19a1 ?
Result: false

Problem: What about CGCAACAGAUAGUAAAUAUTT against Ufsp2 ?
Result: false

Problem: What about GGAAGUUGAAAUGCUGUCGTT against Clcnka ?
Result: true

Problem: What about CCUUCUGUAUAGGUUCUGGTT against Slc41a3 ?
Result: false

Problem: What about GGUGUUGUCAGAAGUUUAATT against Slc22a13b ?
Result: false

Problem: What about GGAAGUUAAUGGGUAAAGUTT against Olfr365 ?
Result: false

Problem: What about GGGUAUUUUCACUGAAAGUTT against Ltbp3 ?
Result: false

Problem: What about GGUGGAGUCUGAACUUAAUTT against Nfatc4 ?
Result: false

Problem: What about GGCAAAAGAACAAGAAACUTT against Orc1 ?
Result: true

Problem: What about CGUGAUGGGACUUGAGAAGTT against Teddm1a ?
Result: false

Problem: What about GGAUUUGAUUCCGCCAACGTT against Pon2 ?
Result: true

Problem: What about GGACUUACUGACAAGAAACTT against Pcdhgb8 ?
Result: false

Problem: What about GCUCAGUGGACAUGCUCUATT against Hpse ?
Result: false

Problem: What about GGAUGACAUUUCAGUGUGGTT against Matn4 ?
Result: false

Problem: What about GGCCCGAAACAAGAAAUCCTT against Ikbke ?
Result: false

Problem: What about GGAGUACAUGGUACACGUUTT against Fut8 ?
Result: false

Problem: What about GCCACAUCGUAGACAAGUATT against Zfp41 ?
Result: true

Problem: What about GGCAGGACAUUCUCAAAUCTT against Praf2 ?
Result: true

Problem: What about CGACCUCCAGUAAUAACCUTT against Olfr310 ?
Result: false
